biological target: Vasopressin V1a receptor (Rattus norvegicus) (UniProt P30560); assay: Anti-vasopressor activity at V1a receptor
Sequence (P30560 whole entry, looked up): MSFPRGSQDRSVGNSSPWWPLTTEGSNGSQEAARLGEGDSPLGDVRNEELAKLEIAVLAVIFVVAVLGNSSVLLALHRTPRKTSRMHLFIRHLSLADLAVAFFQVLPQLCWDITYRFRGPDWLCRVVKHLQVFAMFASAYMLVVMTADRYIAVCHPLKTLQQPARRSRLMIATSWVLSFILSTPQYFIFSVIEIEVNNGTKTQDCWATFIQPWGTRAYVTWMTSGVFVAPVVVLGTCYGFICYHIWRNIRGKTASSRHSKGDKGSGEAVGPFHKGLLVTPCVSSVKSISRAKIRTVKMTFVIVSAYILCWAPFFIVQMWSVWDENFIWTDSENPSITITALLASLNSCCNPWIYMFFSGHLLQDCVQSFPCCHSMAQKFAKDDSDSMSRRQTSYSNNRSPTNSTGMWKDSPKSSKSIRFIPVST
OBSERVED PROPERTY: ED
Could you write the number and then its unit?

// ED lookup, molecule = CC[C@H](C)[C@@H]1NC(=O)[C@H](Cc2ccc(OC)cc2)NC(=O)CC2(CCCCC2)SSC[C@@H](C(=O)N2CCC[C@H]2C(=O)N[C@@H](CCCN)C(=O)N[C@@H](Cc2ccc(O)cc2)C(N)=O)NC(=O)[C@H](CC(N)=O)NC(=O)[C@H]([C@@H](C)O)NC1=O , result: 6.6 nM/kg

// ED lookup, molecule = CCOc1ccc(C[C@@H]2NC(=O)CC3(CCCCC3)SSC[C@@H](C(=O)N3CCC[C@H]3C(=O)N[C@@H](CCCN=C(N)N)C(=O)NCC(N)=O)NC(=O)[C@H](CC(N)=O)NC(=O)[C@H](C(C)C)NC(=O)[C@H](Cc3ccccc3)NC2=O)cc1 , result: 0.14 nM/kg

These entries and their values trace back to ChEMBL document CHEMBL1128364.
